molecular target: IRAK4 (Homo sapiens, UniProt Q9NWZ3); construct: endogenous in cells; host or cells: OCI-LY10; assay: IRAK4 degradation in OCI-LY10 (MSD); type: cell-based; conditions: OCI-LY10 cells, 24 hrs incubation; read-out: IRAK4 MSD degradation in OCI-LY10 at 24 hrs: Average external-Abs DC50
Sequence (Q9NWZ3 whole entry): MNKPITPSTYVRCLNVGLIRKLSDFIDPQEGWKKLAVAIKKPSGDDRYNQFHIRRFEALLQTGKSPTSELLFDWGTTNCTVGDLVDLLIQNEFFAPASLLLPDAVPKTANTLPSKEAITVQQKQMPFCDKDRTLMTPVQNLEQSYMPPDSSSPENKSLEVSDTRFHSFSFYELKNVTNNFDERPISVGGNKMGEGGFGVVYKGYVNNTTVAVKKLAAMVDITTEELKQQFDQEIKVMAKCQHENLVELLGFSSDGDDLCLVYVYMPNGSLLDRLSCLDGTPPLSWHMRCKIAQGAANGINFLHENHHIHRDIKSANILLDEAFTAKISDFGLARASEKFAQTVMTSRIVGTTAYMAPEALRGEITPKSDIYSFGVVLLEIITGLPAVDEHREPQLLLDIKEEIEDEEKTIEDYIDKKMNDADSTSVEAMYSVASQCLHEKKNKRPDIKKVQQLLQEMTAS
Each entry below carries its reported DC50.

Below, 4 molecules whose answers are already recorded.
STRUCTURE_SMILES	REPORTED_RESULT
CN(CCCCOc1ccc(Oc2ccc(N(Cc3ccccc3)C(=O)CCl)cc2)cc1)C[C@H]1CC[C@H](n2cc(NC(=O)c3coc(-c4ccnc(NCC5CC5)c4)n3)c(C(F)F)n2)CC1	> 1000 nM
CN(CCCCOc1ccc(Oc2ccc(N(Cc3ccccc3)C(=O)CCl)cc2)cc1)C[C@H]1CC[C@H](n2cc(N(C)C(=O)c3coc(-c4ccnc(NCC5CC5)c4)n3)c(C(F)F)n2)CC1	> 1000 nM
CN(CCCCCCCCOc1ccc(Oc2ccc(N(Cc3ccccc3)C(=O)CCl)cc2)cc1)C[C@H]1CC[C@H](n2cc(NC(=O)c3coc(-c4ccnc(NCC5CC5)c4)n3)c(C(F)F)n2)CC1	100 to 1000 nM
CN(CCCCCCCNC(=O)COc1ccc2c(c1)CCCN2C(=O)CCl)C[C@H]1CC[C@H](n2cc(NC(=O)c3coc(-c4ccnc(NCC5CC5)c4)n3)c(C(F)F)n2)CC1	> 1000 nM

Sample CN(CCCCCNC(=O)COc1ccc2c(c1)CCCN2C(=O)CCl)C[C@H]1CC[C@H](n2cc(NC(=O)c3coc(-c4ccnc(NCC5CC5)c4)n3)c(C(F)F)n2)CC1 — what was its DC50? > 1000 nM

Sample COCC(=O)N(Cc1ccccc1)c1ccc(Oc2ccc(OCCCCN(C)C[C@H]3CC[C@H](n4cc(NC(=O)c5coc(-c6ccnc(NCC7CC7)c6)n5)c(C(F)F)n4)CC3)cc2)cc1 — what was its DC50? > 1000 nM

Sample CN(CCCNC(=O)COc1ccc2c(c1)CCCN2C(=O)CCl)C[C@H]1CC[C@H](n2cc(NC(=O)c3coc(-c4ccnc(NCC5CC5)c4)n3)c(C(F)F)n2)CC1 — what was its DC50? > 1000 nM

Sample COCC(=O)N1CCCc2cc(OCC(=O)NCCCCCN(C)C[C@H]3CC[C@H](n4cc(NC(=O)c5coc(-c6ccnc(NCC7CC7)c6)n5)c(C(F)F)n4)CC3)ccc21 — what was its DC50? > 1000 nM

Sample CN(CCCCCCOc1ccc(Oc2ccc(N(Cc3ccccc3)C(=O)CCl)cc2)cc1)C[C@H]1CC[C@H](n2cc(NC(=O)c3coc(-c4ccnc(NCC5CC5)c4)n3)c(C(F)F)n2)CC1 — what was its DC50? > 1000 nM

Sample CN(CCCCCCCCCNC(=O)COc1ccc2c(c1)CCCN2C(=O)CCl)C[C@H]1CC[C@H](n2cc(NC(=O)c3coc(-c4ccnc(NCC5CC5)c4)n3)c(C(F)F)n2)CC1 — what was its DC50? > 1000 nM

Sample CN(CCCCCCCCCCOc1ccc(Oc2ccc(N(Cc3ccccc3)C(=O)CCl)cc2)cc1)C[C@H]1CC[C@H](n2cc(NC(=O)c3coc(-c4ccnc(NCC5CC5)c4)n3)c(C(F)F)n2)CC1 — what was its DC50? 100 to 1000 nM
